# System: SK-MEL-2 melanoma
# experimentDescription: NCI tumour cell line growth inhibition, 48 h; in the data active = GI50 below about 0.43 µM; inactive = the rest
Outcomes: active, inactive

molecule: Nc1ccn([C@H]2C[C@@H](O)[C@@H](CO)S2)c(=O)n1
assayedSystem: SK-MEL-2 melanoma
discreteLabel: inactive
//
molecule: N#C/C(=C/C=C(\Cl)c1ccc(Cl)cc1)C(N)=O
assayedSystem: SK-MEL-2 melanoma
discreteLabel: inactive
//
molecule: CC(CN)[C@@H]1CC[C@]2(CO)CC[C@]3(C)[C@H](CC[C@@H]4[C@@]5(C)CCC(NCCO)C(C)(C)[C@@H]5CC[C@]43C)[C@@H]12 (stereo not given in full)
assayedSystem: SK-MEL-2 melanoma
discreteLabel: inactive
//
molecule: CC(C)(C)OC(=O)NCCCCCCCCn1c2c(c3ccccc3c1=O)C(=O)c1ccccc1-2
assayedSystem: SK-MEL-2 melanoma
discreteLabel: inactive
//
molecule: C=C(CN1CCN(c2cccc(C(F)(F)F)c2)CC1)c1ccc(C(=O)Nc2ccccc2N)cc1
assayedSystem: SK-MEL-2 melanoma
discreteLabel: inactive
//
molecule: O=C1/C(=C/c2ccccc2)SC(=Nc2ccccc2)N1Nc1ccccc1
assayedSystem: SK-MEL-2 melanoma
discreteLabel: inactive
//
molecule: C/C=C(\C)C(=O)O[C@@H]1C(O)[C@H]2OC(COC(=O)CCC(=O)CCCCCC[C@H](CCCCC)O[C@@H]3OC(C)[C@H](OC(C)=O)C(O)[C@H]3O2)[C@H]1OC(=O)/C=C/c1ccccc1 (stereo not given in full)
assayedSystem: SK-MEL-2 melanoma
discreteLabel: active
//
molecule: O=C(Nc1cnn2ccc(N3CCC[C@@H]3c3cc(F)ccc3F)nc12)N1CC[C@H](O)C1
assayedSystem: SK-MEL-2 melanoma
discreteLabel: inactive
//
molecule: COc1cc2c3c(n(CCCN)c(=O)c2cc1OC)-c1ccc(F)cc1C3=O
assayedSystem: SK-MEL-2 melanoma
discreteLabel: inactive
//
molecule: Cc1ccc(S(=O)(=O)Oc2ccc3c4c(c(=O)oc3c2)CCCCC4)cc1
assayedSystem: SK-MEL-2 melanoma
discreteLabel: inactive
//
molecule: O=C(Oc1ccc([N+](=O)[O-])cc1)N1CCN(Cc2cccc(Oc3ccccc3)c2)CC1
assayedSystem: SK-MEL-2 melanoma
discreteLabel: inactive
//
molecule: CS(=O)(=O)N1CCN(Cc2cc3nc(-c4cccc5[nH]ncc45)nc(N4CCOCC4)c3s2)CC1 (tested in a mixture with another compound)
assayedSystem: SK-MEL-2 melanoma
discreteLabel: inactive
//
molecule: Nc1ccc(C#Cc2cncnc2Nc2ccc(OCc3cccc(F)c3)c(Cl)c2)cc1
assayedSystem: SK-MEL-2 melanoma
discreteLabel: inactive
//
molecule: COC(=O)c1ccc(=O)c2nc3/c(=C/O)c(O)cc(=O)c3[nH]c12
assayedSystem: SK-MEL-2 melanoma
discreteLabel: inactive
//
molecule: CN1CCN(CC(=O)Nc2ccc3ncnc(Nc4ccc(Oc5cccc(C(F)(F)F)c5)c(Cl)c4)c3c2)CC1
assayedSystem: SK-MEL-2 melanoma
discreteLabel: inactive
